Can you tell me pIC50 for the items I'm about to list?
# experimentSummary: Inhibition of biotin-labelled P4 peptide binding to MDM2 Ser77 mutant (unknown origin) by surface plasmon resonance method
# Design: species or system Homo sapiens
pIC50: −log10 of the molar value.

Please give the documented pIC50 of CN1CCc2cccc3c2[C@H]1Cc1ccc(O)c(O)c1-3
< 4.52

# context switch: different compound, same pIC50
Please give the documented pIC50 of CN1CCc2cccc3c4c(cc1c23)C=CC(=O)C4=O
< 4.52

* * *

# assaySystem: E3 ubiquitin-protein ligase Mdm2 (Homo sapiens, UniProt Q00987)
# experimentSummary: Inhibition of biotin-labelled D-p53 binding to D-MDM2 (25 to 109 residues) (unknown origin) by FAM labeled P4 peptide based fluorescence polarization assay
# Sequence (Q00987 whole entry, looked up, the tested form may be a part): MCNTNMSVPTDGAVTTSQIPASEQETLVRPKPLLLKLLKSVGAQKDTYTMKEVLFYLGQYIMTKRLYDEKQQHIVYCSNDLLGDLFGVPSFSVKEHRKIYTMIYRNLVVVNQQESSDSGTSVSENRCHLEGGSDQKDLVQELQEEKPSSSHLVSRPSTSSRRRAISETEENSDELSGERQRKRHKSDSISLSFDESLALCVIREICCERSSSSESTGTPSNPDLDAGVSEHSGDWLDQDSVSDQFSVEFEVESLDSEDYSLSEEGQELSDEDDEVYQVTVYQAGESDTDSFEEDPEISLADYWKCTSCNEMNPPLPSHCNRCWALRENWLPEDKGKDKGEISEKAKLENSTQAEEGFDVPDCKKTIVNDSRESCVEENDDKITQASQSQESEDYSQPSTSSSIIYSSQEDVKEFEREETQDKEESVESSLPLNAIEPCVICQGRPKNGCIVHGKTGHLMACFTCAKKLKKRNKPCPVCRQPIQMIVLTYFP
quantityName: pIC50
One number for each entry, as −log10 of the molar value.

Please give the documented pIC50 of CN1CCc2cccc3c2[C@H]1Cc1ccc(O)c(O)c1-3 [APOMORPHINE]
6.71

* * *

# assaySystem: UniProtKB Q00987
# experimentSummary: Inhibition of biotin-labelled P4 peptide binding to MDM2 (25 to 109 residues) (unknown origin) by surface plasmon resonance method
# Sequence (Q00987 whole entry, the tested form may be a part): as the sequence (Q00987 whole entry, looked up, the tested form may be a part) above
quantityName: pIC50
Give bare numbers, as −log10 of the molar value.

Please give the documented pIC50 of CN1CCc2cccc3c4c(cc1c23)C=CC(=O)C4=O
5.77
